The entries below come with measured pKd values attached.
B1: scFv; the commonest letter at each place (parent)
chain 1: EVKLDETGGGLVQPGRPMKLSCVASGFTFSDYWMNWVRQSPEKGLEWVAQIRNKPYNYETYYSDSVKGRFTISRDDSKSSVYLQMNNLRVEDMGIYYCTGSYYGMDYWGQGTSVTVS
chain 2: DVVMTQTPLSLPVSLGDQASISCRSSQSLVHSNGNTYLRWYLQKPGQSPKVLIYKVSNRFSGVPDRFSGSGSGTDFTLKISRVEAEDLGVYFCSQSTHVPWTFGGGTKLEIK

Variants of: B1
TEST_METHOD_NOTES: Kd (Tite-Seq)
REPORTED_CONDITIONS: with fluorescein; format: scFv 4-4-20, heavy + light
pKd: −log10 of the molar value.

> print(dat)
                variant.spec  reported.measurement
1               chain 1 N35L                ≤ 5.00
2          chain 1 W36K V37H                ≤ 5.00
3          chain 1 S30Y W36N                ≤ 5.00
4          chain 1 T28L W36A                ≤ 5.00
5  chain 1 G100I S101Y Y107A                ≤ 5.00
6     chain 1 S30D W36V V37L                ≤ 5.00
7          chain 1 S30P V37Y                  7.14
8        chain 1 W108E G109K                ≤ 5.00

# input for lookup
### Prompt Report pKd for chain 1 Y102H D106G
### Response ≤ 5.00
